This collection of values is drawn from patent US12226403B2.

Test: PK parameters for oral administration to monkeys
Type: in vivo
Conditions: cynomolgus monkey, plasma, 100 mg; oral tablets vs previously generated IV data, estimated; read-out: bioavailability of tebipenem
Reported endpoint: bioavailability

Find the recorded bioavailability belonging to C[C@@H](O)[C@H]1C(=O)N2C(C(=O)O)=C(SC3CN(C4=NCCS4)C3)[C@H](C)[C@H]12 and report it.
39 to 50%

---

Test: Previously generated IV data
Conditions: in vivo, 10 mg/kg dose
Reported endpoint: AUC (ng·h/mL)
Give just the number in ng·h/mL; leave the unit off.

Find the recorded AUC belonging to C[C@@H](O)[C@H]1C(=O)N2C(C(=O)O)=C(SC3CN(C4=NCCS4)C3)[C@H](C)[C@H]12 and report it.
13100
